- Assay Comment: Inhibition of rat gastrocnemius Ca2+/Mg2+ ATPase after 2 hrs
- Assay type: tissue-based
Observed Property: IC50

- Compound Structure: "COc1cc2c(cc1O)oc(=O)c1c3cc(O)c(O)cc3oc21"
  Observed Property: "IC50"
  Experimental Value: "10 µM"

###

- Assay Comment: Inhibition of rat stomach H(+)/K(+) ATPase after 2 hrs by Fiske and Subbarow method
- Format: tissue-based

- Compound Structure: "COc1cc2c(cc1O)oc(=O)c1c3cc(O)c(O)cc3oc21"
  Display Unit: "µM"
  IC50: 30
